# System: MS2 coat protein
# TEST SUMMARY: apparent Kd, MS2 coat protein; higher = weaker binding; RNA-MaP array; tryptophan 2.4 mM where present
# RUN PARAMETERS: ligand present: tryptophan; designed as: ON switch for tryptophan
apparent Kd vs 40 nM: at or above is t, below is f.

Sample answers from the record:
Hello, I need to know if CUAUAUAUAUCGGCCGCCACUUACUCAUGAGGUAACAACAUGAGGAUCACCCAUGUUUGAGGAUCAAGGACCGGGAUAUAUAUAG has measured apparent Kd not below 40 nM. Thanks!
f

Hello, I need to know if CCUCAAUAGACGGCCGCCACUGAGACAUGAGGAUACAUGAGGAUCACCCAUGUGGGUGUGUCACGCAGGACCGGGUCAAGACCCG has measured apparent Kd not below 40 nM. Thanks!
t

Hello, I need to know if AGUUAUUCGAACAUGGUUGACGAGUGGCAACGAGGACCGGUACGGCCGCCACUCGAAUAAACAUGAGGAUCACCCAUGUACAAAU has measured apparent Kd not below 40 nM. Thanks!
t

Others:
Hello, I need to know if CACGCACGAUCGGCCGCCACUCAUGUAGCUUACAUGAGGAUCACCCAUGUAUUUUCUUUCUUAUAGAGGACCGGGAUCGUGCGUG has measured apparent Kd not below 40 nM. Thanks!
f

Hello, I need to know if AACGCGGUGAUGGUAGCCGGACGCUAGGUACGAGGACCGGUACGGCCGCCACUCGGAGUCCUACGACAUGAGGAUCACCCAUGUA has measured apparent Kd not below 40 nM. Thanks!
t

Hello, I need to know if AGUUUGGACUCGGCCGCCACUCGUGAUGCUUUGGCACAUGAGGAUCACCCAUGUGGUCGGCCUUAGAGGACCGGGAGUACCAGCC has measured apparent Kd not below 40 nM. Thanks!
t

Hello, I need to know if CUUGGCUGUGCGGCCGCCACUGACUCAUCCUGCAUUACAUGAGGAUCACCCAUGUUGCGGCCUCCCAGGACCGGGCAUAGCCUGC has measured apparent Kd not below 40 nM. Thanks!
t
